tested on: MS2 coat protein; test: apparent KD of MS2 coat protein; higher = weaker reporter binding; details: Eterna round: R107; input ligand: theophylline 2 mM
Classification field: Met = apparent KD of MS2 coat protein at or over 0.02 µM; Not met = apparent KD of MS2 coat protein under 0.02 µM.

BIOSEQUENCE	GROUP_LABEL
ACGGGCAUGGCGGCCGCCACUGGUUGGCGUGCGGAUGAGGGAACAUGAGGAUCACCCAUGUUGGUUAGGACCGGGCUGGCGUCGA [kkymullin]	Not met
CGAUAGAUACGAAGGAGCGACAUGAGGAUCACCCAUGUCUACCACGUCGAAAGACGCUCAUGUCAGGUAGGUCGCGUAUUUAUCG [Astros-Eli-mod8]	Met
GGGCCCGGCCGAAAGGCCGGGCCCGCUGAAGGAGCGGGAAAUAACCCAGGUAGGUCGCAGAGAUCCACAUGAGGAUCACCCAUGU [#26 Exclusion - Arginine A]	Met
UGACAUUGCUCAGAUACCAGACAUGAGCAUCAGCCAUGUACCAAGAGUACAUGUUAAAGUGUCCCUUGGCAGCUGAGCAAUGUCU [Mod of Eli's TheoBX5 #AlternateMS2 v3]	Met
AAGUAAACAUGAGCAAAGCUCAUGUGCGAAGGAGCGGCGGAAACGCCAGGUAGGUCGCGCACAUGAGCAUCAGCCAUGUGUAUCA [Omei Arginine B SS A v2]	Met
UCACAUGAGGAUCACCCAUGUCCAGGUGAAGGAGCGAUUAGGGAGUCAGGUAGGUCGCACCACAUGAGGAUCACCCAUGUGCCUG [EAA NP+V+V2 #8 DOUBLE]	Met

---

tested on: K4 kissing-loop RNA reporter; assay: apparent KD of K4 kissing-loop reporter; higher = weaker reporter binding; conditions: Eterna round: R107; input ligand: theophylline 20 uM;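 further: bound reporter read as fluorescence of individual clusters on recovered sequencing chips by microscopy, with normalized cluster intensities fitted with a binding model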

BIOSEQUENCE	apparent KD of K4 kissing-loop reporter / nM
AAGUACACGAUAGUGUACACCUAGUGAUGUUAGGAUAUGCAGAUAUGCAGAAGGAACGAGUCAUCUGACAAUAGUCGGAUGACAA [FmnAX 8 #OpenEnded #K4Early]	103
GGCUUACUAGUGAUGUUAGUAUUUUCUGAAGGAGCGCGUGAAAACGCAGGUAGGUCGCAGAACCUUGCCAACUAUUUUAGUUGCC [Ex Arginine A K4 28]	136
GUUAUGGACCUUUUGAUCGUUCGUAGCGAUACCAGACAAUGGGCAGUCCCUUGGCAGCGCUAAUUGAGUGAUGUUCAAACGUGCA [theeternabot_exclusion_KL_Theo_A_46]	331
CUGUACAUCUCGGCCGCCACUGACCUAAGUGAUGUUAGGAAUGAAACCUAGUGAUGUUAGCAAACCAGGACCGGGAGGUGUGCAG [KL-SSTryp-B4 #Double Kiss]	40.2
CGUGAGUGCCGACGGUCAUCGGUCCAUGCACGAGGACCGGUACGGCCGCCACUCGAGCGUGGCAGUGAUGUUGCCAGCGCACUAA [Oninvexece]	98.5
GGAGUCCCGUUAGAUUGUGUAGAUACAAGACGAGGACCGGUACGGCCGCCACUCGCCAUCGUCCAGUGAUGUUGGGCGUCACGGG [theeternabot_sameState_KL_Trp_A_30]	227

---

test system: MS2 coat protein; assay: apparent KD of MS2 coat protein; designed switch direction (-1 OFF switch, 1 ON switch): -1; higher = weaker reporter binding; conditions: Eterna round: R95; input ligand: FMN 200 uM
Lab note: anything with apparent KD of MS2 coat protein at or over 50 nM counts as criterion met; the rest go in criterion not met.

BIOSEQUENCE	SUBJECT_OF_TEST	GROUP_LABEL
AUUUAGAGAGGAUAUAUAAAGUGAAACAUGAGGAUCACCCAUGUAAUUUUAUGGAUGUAAAUAGAAGGCUCAUUUA [Mat - Exclusion 5 - JL mod - D1] (puzzle: Exclusion 5)	MS2 coat protein	criterion not met
GGUCUGCGAGGAUAUACAUGAGGAUCACCCAUGUGCGAGUUACUAGUGAGGUCGGUUGGUAGAAGGCGCGGACG [JL-ex3-2.09 salish99 mod] (puzzle: Exclusion 3)	MS2 coat protein	criterion met
GGAAAACAUGAGGAUCACCCAUGUGAGGAUAUGCGUACGUUGUCCGUAGGCGACGUGCGCAGAAGGCGCAAGAG [Mat - Mod of JL D89] (puzzle: Exclusion 1)	MS2 coat protein	criterion met
UGUACUAUGCGUGCUGACAUGCGUAGUGCAGCAGGUGUAACAUGAGGAUCACCCAUGUCCUCAUUUGCUCGUCUUAU [SL-sv3-2.06 JL mod] (puzzle: Sensor v3, turn-off variant 2)	MS2 coat protein	criterion met
CUGGUGUGAGGAUAUCAGGGCGCGCCCAAGGGCACGCCAAAUGAGAAGGCACAUGAGGAUCACCCAUGUGGGAC [Erzala] (puzzle: Exclusion 4)	MS2 coat protein	criterion not met
AGAAGUAGUAACCGAUCCUACAUGAGGAUCACCCAUGUAGCAAGACGUGCACGCGAAGCUCGUCAGACUACCAGAUG [salish99_TOv1_r3_020] (puzzle: Sensor v3, turn-off variant 1)	MS2 coat protein	criterion met
CGUACUAAAGUCAGGAUAUUGUCUCGGAUACGAAACAAGAAGGGACAUGAGGAUCACCCAUGUAGAUAGUACGA [Malc #30 mod 5] (puzzle: Brourd's mod of Exclusion 4)	MS2 coat protein	criterion not met
CUUAGCCUAAAAUCACGCAAGCUCUUUGCUUGUCUUAAGACAUGAGGAUCACCCAUGUCCGGGCUGAACUUAUGGAA [Qugegele] (puzzle: Sensor v3, turn-off variant 2)	MS2 coat protein	criterion not met
UGUGCGUAUGUGAGGAUAUGCUGGUCCUUGGAUCAGCAGAAGGCACAUGAGGAUCACCCAUGUGGUGUCGUACA [salish99_Bmod_Ex4_007] (puzzle: Brourd's mod of Exclusion 4)	MS2 coat protein	criterion not met
AACAAGCUUUUAAGAUGAAAGAUAGUAGGUAGCUCCUUUACAUGAGGAUCACCCAUGUUUGUGUAGCUCGAUCUUAU [JR_SV3TOV2_Sub076] (puzzle: Sensor v3, turn-off variant 2)	MS2 coat protein	criterion not met
